molecular target: Prothrombin (Homo sapiens, UniProt P00734)
pKi: −log10 of the molar value.
Classify by measured pKi: yes if it is equal to or exceeds 6, no if it is smaller.

COc1cc(Cl)cc(C(=O)Nc2ccc(Cl)cn2)c1NC(=O)c1scc(CN(CC(F)(F)F)C2=NCCO2)c1Cl	no
COc1cc(Cl)cc(C(=O)Nc2ccc(Cl)cn2)c1NC(=O)c1scc(CN(C)C(=O)NCCC(=O)O)c1Cl	yes
COc1cc(Cl)cc(C(=O)Nc2ccc(Cl)cn2)c1NC(=O)c1scc(CN(C)CCN2CCCC2)c1Cl	yes
COc1cc(Cl)cc(C(=O)Nc2ccc(Cl)cn2)c1NC(=O)c1scc(CN2CCN=C2SC)c1Cl	no
COc1cc(Cl)cc(C(=O)Nc2ccc(Cl)cn2)c1NC(=O)c1scc(CN(C)C(N)=O)c1Cl	yes
COc1cc(Cl)cc(C(=O)Nc2ccc(Cl)cn2)c1NC(=O)c1scc(CN2CCN=C2C)c1Cl	no
CCNCc1csc(C(=O)Nc2c(OC)cc(Cl)cc2C(=O)Nc2ccc(Cl)cn2)c1Cl	no
COc1cc(Cl)cc(C(=O)Nc2ccc(Cl)cn2)c1NC(=O)c1scc(CN2CCSC2=N)c1Cl	no
COc1cc(Cl)cc(C(=O)Nc2ccc(Cl)cn2)c1NC(=O)c1scc(CN)c1Cl	no
CCN(Cc1csc(C(=O)Nc2c(OC)cc(Cl)cc2C(=O)Nc2ccc(Cl)cn2)c1Cl)C1=NCCO1	yes
COc1cc(Cl)cc(C(=O)Nc2ccc(Cl)cn2)c1NC(=O)c1scc(CN(C)CC(C)O)c1Cl (centres undefined)	no

###

Recorded pKi by entry
biological target: UniProt P00742
Sequence (P00742 41-179 limits assumed): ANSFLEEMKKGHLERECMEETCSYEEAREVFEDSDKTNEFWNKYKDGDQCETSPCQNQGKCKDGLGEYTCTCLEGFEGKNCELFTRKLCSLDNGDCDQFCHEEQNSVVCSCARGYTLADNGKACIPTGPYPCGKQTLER
Sequence (P00742 235-488 limits assumed): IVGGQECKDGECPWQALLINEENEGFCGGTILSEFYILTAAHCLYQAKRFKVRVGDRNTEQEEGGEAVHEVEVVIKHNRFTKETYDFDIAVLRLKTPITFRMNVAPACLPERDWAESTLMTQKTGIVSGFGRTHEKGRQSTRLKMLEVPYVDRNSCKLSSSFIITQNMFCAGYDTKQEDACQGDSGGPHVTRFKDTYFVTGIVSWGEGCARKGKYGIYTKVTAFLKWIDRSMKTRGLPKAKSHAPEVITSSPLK
pKi: −log10 of the molar value.
measurement label: pKi

COc1cc(Cl)cc(C(=O)Nc2ccc(Cl)cn2)c1NC(=O)c1scc(CN2CCNC2=N)c1Cl	≥ 11.00
COc1cc(Cl)cc(C(=O)Nc2ccc(Cl)cn2)c1NC(=O)c1scc(Cn2ccnc2C)c1Cl	≥ 11.00
COc1cc(Cl)cc(C(=O)Nc2ccc(Cl)cn2)c1NC(=O)c1scc(CN(C)C(C)=N)c1Cl	≥ 11.00
COc1cc(Cl)cc(C(=O)Nc2ccc(Cl)cn2)c1NC(=O)c1scc(CN2CCN=C2C)c1Cl	≥ 11.00

###

The listing below reports Ki for compounds tested on Prothrombin (Homo sapiens).
measurement label: Ki (nM)

COc1cc(Cl)cc(C(=O)Nc2ccc(Cl)cc2)c1NC(=O)c1scc(CN2CCN(C)CC2)c1Cl	1300
COc1cc(Cl)cc(C(=O)Nc2ccc(Cl)cn2)c1NC(=O)c1scc(CN(C)C2=NCCC2)c1Cl	970
COc1cc(Cl)cc(C(=O)Nc2ccc(Cl)cn2)c1NC(=O)c1scc(CN(C)CCO)c1Cl	1400
COc1cc(Cl)cc(C(=O)Nc2ccc(Cl)cn2)c1NC(=O)c1scc(CN2CCOCC2)c1Cl	1400
COc1cc(Cl)cc(C(=O)Nc2ccc(Cl)cn2)c1NC(=O)c1scc(CN(C)CC(C)(C)O)c1Cl	1100
COc1cc(Cl)cc(C(=O)Nc2ccc(Cl)cn2)c1NC(=O)c1scc(CN(C)CC(O)CO)c1Cl (stereo not drawn)	1200
COc1cc(Cl)cc(C(=O)Nc2ccc(Cl)cn2)c1NC(=O)c1scc(CN2CCC(O)CC2)c1Cl	770
COc1cc(Cl)cc(C(=O)Nc2ccc(Cl)cn2)c1NC(=O)c1scc(CN(C)c2ncc[nH]2)c1Cl	860
